# Target: human recombinant Casein kinase 18 (CK1δ) (Homo sapiens, UniProt P48730)
# Construct: purchased Reaction Biology Corp
# Sequence (P48730 whole entry): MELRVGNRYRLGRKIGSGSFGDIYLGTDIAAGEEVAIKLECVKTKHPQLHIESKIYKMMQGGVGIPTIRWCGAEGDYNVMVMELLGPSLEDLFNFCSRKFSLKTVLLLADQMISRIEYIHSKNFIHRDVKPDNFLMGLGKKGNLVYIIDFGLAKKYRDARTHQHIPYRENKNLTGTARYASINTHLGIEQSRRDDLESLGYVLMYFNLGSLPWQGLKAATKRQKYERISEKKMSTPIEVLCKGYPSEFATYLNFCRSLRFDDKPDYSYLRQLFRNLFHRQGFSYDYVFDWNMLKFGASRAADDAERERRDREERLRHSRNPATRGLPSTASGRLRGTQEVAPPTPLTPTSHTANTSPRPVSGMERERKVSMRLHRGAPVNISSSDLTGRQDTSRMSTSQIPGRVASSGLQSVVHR
# Procedure Details: Kinase inhibition assay (HotSpot, Reaction Biology Corp), CK1δ
# Assay type: biochemical
# Reported Conditions: 10 μM ATP, 10-dose IC50 mode; read-out: Compound IC50 (M) CK1δ
Readout Label: IC50 (M)
Report only the number, with the unit M understood.

Sample answers from the record:
Q: Specify reported IC50 for the molecule shown: OCCNc1nccc(-c2c(-c3ccc(F)cc3)ncn2CC2CCCCC2)n1 [ZH3-118]
Ans: 2.13e-09

Q: Provide only the value of recorded IC50 for Fc1ccc(-c2ncn(C3CCCCC3)c2-c2ccnc(NC3CCCCC3)n2)cc1 [ZH2-58]
Ans: 1.95e-08

Q: Quote IC50 reported for O[C@H]1C[C@H](Nc2nccc(-c3c(-c4ccc(F)cc4)ncn3C3CCCCC3)n2)C1 [ZH3-50] please.
Ans: 1.36e-09

Q: Given Fc1ccc(-c2ncn(CC3CCCCC3)c2-c2ccnc(NC3COC3)n2)cc1 [ZH3-114] , respond with its IC50.
Ans: 1.17e-09

Q: Check the records and state IC50 for Fc1ccc(-c2ncn(C3CCCCC3)c2-c2ccnc(NCc3ccccc3F)n2)cc1 [ZH2-118]
Ans: 9.6e-09

Q: Indicate its recorded IC50; the molecule in question is Nc1nccc(-c2c(-c3ccc(F)cc3)ncn2C2CCCC2)n1 [ZH3-58]
Ans: 8.33e-09

Next:
Q: Name the recorded IC50 of the molecule listed here: Fc1ccc(-c2ncn(C3CCCCC3)c2-c2ccnc(NC3CCCC3)n2)cc1 [ZH2-46]
Ans: 4.99e-09

Q: Read the entry Fc1ccc(-c2ncn(C3CCCCC3)c2-c2ccnc(NC3CCC(F)(F)CC3)n2)cc1 [ZH2-146] and write its reported IC50.
Ans: 4.93e-09

Q: Please list IC50 recorded for the molecule O=S1(=O)CCC(Nc2nccc(-c3c(-c4ccc(F)cc4)ncn3C3CCCCC3)n2)CC1 [ZH3-134]
Ans: 1.15e-09

###

# Procedure Details: Mouse pharmacokinetics, IV and oral administration
# Type: in vivo
# Reported Conditions: male, C57BL/6, mouse, plasma, iv, 2.69 mg/kg, male C57BL/6 mice, IV 2.69 mg/kg, 4.0 h; read-out: Plasma Concentration, Mean
Readout Label: concentration at 4 h
Form field: result (number plus unit)

Q: Return the recorded concentration at 4 h value; entry: Nc1nccc(-c2c(-c3ccc(F)cc3)ncn2C2CCC(F)(F)CC2)n1
Ans: 3.63 µM

###

# Procedure Details: Mouse pharmacokinetics, IV and oral administration
# Type: in vivo
# Reported Conditions: male, C57BL/6, mouse, plasma, iv, 2.69 mg/kg, male C57BL/6 mice, IV 2.69 mg/kg, 0.25 h; read-out: Plasma Concentration, Individual
Readout Label: concentration at 0.25 h

Q: Report measured concentration at 0.25 h; entry is Nc1nccc(-c2c(-c3ccc(F)cc3)ncn2C2CCC(F)(F)CC2)n1
Ans: 5.04 µM

###

# Target: human recombinant Casein kinase 18 (CK1δ) (Homo sapiens, UniProt P48730)
# Construct: purchased Reaction Biology Corp
# Procedure Details: Kinase inhibition assay (HotSpot, Reaction Biology Corp), CK1δ
# Type: biochemical
# Reported Conditions: 10 μM ATP, 10-dose IC50 mode; read-out: Compound IC50 (M) CK1δ
Readout Label: IC50 (M)
Report as a plain number; the unit M is understood.

Q: Give the measured IC50 for Nc1nccc(-c2c(-c3ccc(F)cc3)ncn2CC2CCC(F)(F)CC2)n1
Ans: 6.13e-09

Q: Return the recorded IC50 value; entry: Fc1ccc(CNc2nccc(-c3c(-c4ccc(F)cc4)ncn3C3CCCCC3)n2)cc1
Ans: 5.07e-09

Q: Name the recorded IC50 of the compound listed here: Nc1nccc(-c2c(-c3ccc(F)cc3)ncn2C2CCC(F)(F)CC2)n1
Ans: 9.32e-09

Others:
Q: Write down IC50 measured for item Fc1ccc(-c2ncn(C3CCCCC3)c2-c2ccnc(NCc3cccc(F)c3)n2)cc1
Ans: 3.67e-09

Q: Report measured IC50; entry is CCn1cnc(-c2ccc(F)cc2)c1-c1ccnc(NC2CCC2)n1
Ans: 4.16e-09
